System: LK-2
Assay: relative viability (nuclei count vs DMSO), 5 days (fraction); higher = more cells survive
Details: first compound 0.1581 µM
hey, just use true (1) if measured relative viability is less than 0.3, otherwise false (0)

Below, 5 compounds whose answers are already recorded.
| Compound | Classification |
| --- | --- |
| Nc1ccn([C@@H]2O[C@H](CO)[C@@H](O)[C@@H]2O)c(=O)n1 [Cytarabine] + COc1cc2c(Oc3ccc(NC(=O)C4(C(=O)Nc5ccc(F)cc5)CC4)cc3F)ccnc2cc1OCCCN1CCOCC1 [Foretinib] (partner 0.25 µM) | false (0) |
| Nc1ccn([C@@H]2O[C@H](CO)[C@@H](O)[C@@H]2O)c(=O)n1 [Cytarabine] + NC(=O)Nc1cc(-c2cccc(F)c2)sc1C(=O)N[C@H]1CCCNC1 [AZD7762] (partner 0.2 µM) | true (1) |
| Nc1ccn([C@@H]2O[C@H](CO)[C@@H](O)[C@@H]2O)c(=O)n1 [Cytarabine] + Cc1nc(Nc2ncc(C(=O)Nc3c(C)cccc3Cl)s2)cc(N2CCN(CCO)CC2)n1 [Dasatinib] (partner 0.075 µM) | true (1) |
| COc1cc2nccc(Oc3ccc(NC(=O)Nc4cc(C)on4)c(Cl)c3)c2cc1OC [Tivozanib] + Nc1ncn([C@H]2C[C@H](O)[C@@H](CO)O2)c(=O)n1 [Decitabine] (partner 2 µM) | true (1) |
| COc1cc2nccc(Oc3ccc(NC(=O)Nc4cc(C)on4)c(Cl)c3)c2cc1OC [Tivozanib] + CCNC(=O)c1noc(-c2cc(C(C)C)c(O)cc2O)c1-c1ccc(CN2CCOCC2)cc1 [Luminespib] (partner 0.01 µM) | true (1) |

Please determine if Nc1ccn([C@@H]2O[C@H](CO)[C@@H](O)[C@@H]2O)c(=O)n1 [Cytarabine] + CC1(C)CCC(c2ccc(Cl)cc2)=C(CN2CCN(c3ccc(C(=O)NS(=O)(=O)c4ccc(N[C@H](CCN5CCOCC5)CSc5ccccc5)c(S(=O)(=O)C(F)(F)F)c4)cc3)CC2)C1 [Navitoclax] (partner 0.5 µM) is below 0.3 in terms of relative viability.
true (1)

Next entry: COc1cc2nccc(Oc3ccc(NC(=O)Nc4cc(C)on4)c(Cl)c3)c2cc1OC [Tivozanib] + CS(=O)(=O)N1CCN(Cc2cc3nc(-c4cccc5[nH]ncc45)nc(N4CCOCC4)c3s2)CC1 [Pictilisib] (partner 1 µM)
false (0)

Another compound: COc1cc2nccc(Oc3ccc(NC(=O)Nc4cc(C)on4)c(Cl)c3)c2cc1OC [Tivozanib] + COc1cc2c(Oc3ccc(NC(=O)C4(C(=O)Nc5ccc(F)cc5)CC4)cc3F)ccnc2cc1OCCCN1CCOCC1 [Foretinib] (partner 0.25 µM)
false (0)

* * *

Tested on: NCI-H2228
Test: relative viability (nuclei count vs DMSO), 5 days (fraction); higher = more cells survive
Details: first compound 2.53 µM
Measurement Label: relative viability

| Compound | relative viability |
| --- | --- |
| Cc1cnc(-c2cnc(NCCNc3ccc(C#N)cn3)nc2-c2ccc(Cl)cc2Cl)[nH]1 + Cc1cc(Nc2cc(N3CCN(C)CC3)nc(Sc3ccc(NC(=O)C4CC4)cc3)n2)n[nH]1 [Tozasertib] (partner 0.1 µM) | 0.268 |

# lookup: relative viability of Cc1cnc(-c2cnc(NCCNc3ccc(C#N)cn3)nc2-c2ccc(Cl)cc2Cl)[nH]1 + CS(=O)(=O)N1CCN(Cc2cc3nc(-c4cccc5[nH]ncc45)nc(N4CCOCC4)c3s2)CC1 [Pictilisib] (partner 1 µM)
0.287

Ok, now Cc1cnc(-c2cnc(NCCNc3ccc(C#N)cn3)nc2-c2ccc(Cl)cc2Cl)[nH]1 + N=C(N)NC(=N)NCCc1ccccc1 [Phenformin] (partner 250 µM)
0.228

Also O=c1[nH]c2ccccc2n1C1CCN(CCCC(c2ccc(F)cc2)c2ccc(F)cc2)CC1 [Pimozide] + CC(=O)Nc1cccc(-n2c(=O)n(C3CC3)c(=O)c3c(Nc4ccc(I)cc4F)n(C)c(=O)c(C)c32)c1 [Trametinib] (partner 0.02 µM) , if possible.
0.418

Another compound to check: Cc1cnc(-c2cnc(NCCNc3ccc(C#N)cn3)nc2-c2ccc(Cl)cc2Cl)[nH]1 + CCNC(=O)c1noc(-c2cc(C(C)C)c(O)cc2O)c1-c1ccc(CN2CCOCC2)cc1 [Luminespib] (partner 0.01 µM)
0.159
